- Test system: ASPC1
- ASSAY PROTOCOL: Reduction in viability of human AsPC1 cells after 6 hrs by fluorescence assay
- Format: functional, cell-based
Activity calls are given as the source filed them. The calls are words filed in the database; no cut-off is given here.
Hello, when you answer, please use one of the following outcomes: Y for active, N for inactive

Query: Recorded test outcome, item O=C(Nc1ccc([N+](=O)[O-])cc1Cl)c1cc(Cl)ccc1O [NICLOSAMIDE]
Reply: Y

Query: Recorded test outcome, item `OC1(c2ccc(Cl)c(C(F)(F)F)c2)CCN(CCCC(c2ccc(F)cc2)c2ccc(F)cc2)CC1`
Reply: Y

Query: Recorded test outcome, item `CN(C)CCCN1c2ccccc2Sc2ccccc21`
Reply: Y

Query: Recorded test outcome, item COC(=O)C1=C(C)NC(C)=C(C(=O)OCCN(C)Cc2ccccc2)C1c1cccc([N+](=O)[O-])c1 (stereo unspecified)
Reply: Y

Query: Recorded test outcome, item CN1[C@@H]2CCC[C@H]1CC(NC(=O)c1nn(C)c3ccccc13)C2 (stereo partly specified)
Reply: N

Query: Recorded test outcome, item `CC[C@H]1OC(=O)[C@H](C)[C@@H](O[C@H]2C[C@@](C)(OC)[C@@H](O)[C@H](C)O2)[C@H](C)[C@@H](O[C@@H]2O[C@H](C)C[C@H](N(C)C)[C@H]2O)[C@](C)(O)C[C@@H](C)[C@@H]2N[C@@H](COCCOC)O[C@H]([C@H]2C)[C@]1(C)O`
Reply: N
